# procedure.details: Binding affinity at imidazoline receptor I-1 of rat.
measured.property: Ki (µM)
Give just the numeric value; µM need not be written.

Q: Look up Ki: "Brc1cccc2c3c([nH]c12)CNCC3"
A: 3.74
